MEASURED_ON: tankyrase 2 (TNKS2) (Homo sapiens)
Construct: catalytic fragment (human, recombinant, residues 849–1166)
PROCEDURE_TEXT: immunochemical dot-blot assay of PAR accumulation, […] NAD+; 4PL fit gave […]
Assay type: biochemical
pIC50: −log10 of the molar value.
VALUE_TYPE: pIC50

Can you look up the measured pIC50 of "O=C(NCCNC(=O)c1cnccn1)c1ccc(-c2cc3ccccc3oc2=O)cc1" for me?
> 8.00

---

MEASURED_ON: tankyrase 2 (TNKS2) (Homo sapiens, UniProt Q9H2K2)
Construct: catalytic fragment (human, recombinant, residues 849–1166)
Sequence (Q9H2K2 849-1166): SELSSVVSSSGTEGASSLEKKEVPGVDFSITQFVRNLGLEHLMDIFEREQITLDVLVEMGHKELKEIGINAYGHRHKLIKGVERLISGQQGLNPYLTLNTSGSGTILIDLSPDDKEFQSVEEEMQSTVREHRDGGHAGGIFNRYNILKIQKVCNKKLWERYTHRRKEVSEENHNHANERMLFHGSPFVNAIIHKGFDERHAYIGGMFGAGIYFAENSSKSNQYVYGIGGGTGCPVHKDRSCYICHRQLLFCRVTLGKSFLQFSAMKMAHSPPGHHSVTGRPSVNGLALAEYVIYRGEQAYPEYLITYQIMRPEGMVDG
PROCEDURE_TEXT: immunochemical dot-blot assay of PAR accumulation, […] NAD+; 4PL fit gave […]
Type: biochemical
pIC50: −log10 of the molar value.
VALUE_TYPE: pIC50

Please look up its pIC50: "COc1ccc2oc(=O)c(-c3ccc(OCC(=O)NCc4cccnc4)cc3)cc2c1"
> 5.00
